FYI, the data here is from ChEMBL document CHEMBL5550169.

test: Cmax in female BALB/c mouse plasma at 100 mg/kg, po administered as single dose via oral gavage and measured upto 24 hrs by LC-MS analysis; assay type: ADME, organism-based
readout: Cmax (ng/mL)
Give the value, in units of ng/mL, as a plain number.

The molecule listed as `Cc1cc(C)c2c(C(=O)NC3CCCCCCC3)c[nH]c2c1` has a reported Cmax of 490

###

assay: Tmax in female BALB/c mouse plasma at 100 mg/kg, po administered as single dose via oral gavage and measured upto 24 hrs by LC-MS analysis; assay type: ADME, organism-based
readout: Tmax (h)
Enter your answer as a number in h; do not include the unit.

So, `Cc1cc(C)c2c(C(=O)NC3CCCCCCC3)c[nH]c2c1` ? Its Tmax was 2

###

Target: N-acetyltransferase Eis (Mycobacterium tuberculosis (strain ATCC 25618 / H37Rv), UniProt P9WFK7)
Sequence (P9WFK7 whole entry): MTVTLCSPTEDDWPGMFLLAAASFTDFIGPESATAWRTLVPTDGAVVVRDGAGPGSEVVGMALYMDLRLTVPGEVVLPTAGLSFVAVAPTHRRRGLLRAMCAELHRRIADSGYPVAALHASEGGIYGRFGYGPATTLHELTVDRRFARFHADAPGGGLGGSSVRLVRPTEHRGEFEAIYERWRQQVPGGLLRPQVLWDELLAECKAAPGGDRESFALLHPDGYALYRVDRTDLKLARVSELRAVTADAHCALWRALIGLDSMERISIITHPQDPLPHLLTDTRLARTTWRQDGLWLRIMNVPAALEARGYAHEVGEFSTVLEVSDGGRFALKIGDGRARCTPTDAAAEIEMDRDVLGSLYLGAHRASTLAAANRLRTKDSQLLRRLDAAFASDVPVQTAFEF
Assay: Competitive inhibition of Mycobacterium tuberculosis H37Rv Eis protein using varying concentrations of kanamycin as substrate assessed as inhibition constant by Lineweaver-Burk plot analysis
readout: pKi
On this scale, pKi is minus log10 of a concentration expressed in M (mol/L).

Consider `COc1ccc(C(=O)CSc2nc3ccccc3c(=N)n2-c2ccccc2)cc1` . Its measured pKi is 4.84

###

assay: Tmax in female BALB/c mouse lungs at 100 mg/kg, po administered as single dose via oral gavage and measured upto 24 hrs by LC-MS analysis; format: ADME, organism-based; conditions: lung
readout: Tmax (h)
I only need the number, in h, no unit after it.

So, `Cc1cc(C)c2c(C(=O)NC3CCCCCCC3)c[nH]c2c1` ? Its Tmax was 4
